Cited source for all entries: patent US11028052B2

testedTarget: hTRPM8 (Homo sapiens)
Construct: expressed in transfected cells
Sequence (Q7Z2W7 whole entry): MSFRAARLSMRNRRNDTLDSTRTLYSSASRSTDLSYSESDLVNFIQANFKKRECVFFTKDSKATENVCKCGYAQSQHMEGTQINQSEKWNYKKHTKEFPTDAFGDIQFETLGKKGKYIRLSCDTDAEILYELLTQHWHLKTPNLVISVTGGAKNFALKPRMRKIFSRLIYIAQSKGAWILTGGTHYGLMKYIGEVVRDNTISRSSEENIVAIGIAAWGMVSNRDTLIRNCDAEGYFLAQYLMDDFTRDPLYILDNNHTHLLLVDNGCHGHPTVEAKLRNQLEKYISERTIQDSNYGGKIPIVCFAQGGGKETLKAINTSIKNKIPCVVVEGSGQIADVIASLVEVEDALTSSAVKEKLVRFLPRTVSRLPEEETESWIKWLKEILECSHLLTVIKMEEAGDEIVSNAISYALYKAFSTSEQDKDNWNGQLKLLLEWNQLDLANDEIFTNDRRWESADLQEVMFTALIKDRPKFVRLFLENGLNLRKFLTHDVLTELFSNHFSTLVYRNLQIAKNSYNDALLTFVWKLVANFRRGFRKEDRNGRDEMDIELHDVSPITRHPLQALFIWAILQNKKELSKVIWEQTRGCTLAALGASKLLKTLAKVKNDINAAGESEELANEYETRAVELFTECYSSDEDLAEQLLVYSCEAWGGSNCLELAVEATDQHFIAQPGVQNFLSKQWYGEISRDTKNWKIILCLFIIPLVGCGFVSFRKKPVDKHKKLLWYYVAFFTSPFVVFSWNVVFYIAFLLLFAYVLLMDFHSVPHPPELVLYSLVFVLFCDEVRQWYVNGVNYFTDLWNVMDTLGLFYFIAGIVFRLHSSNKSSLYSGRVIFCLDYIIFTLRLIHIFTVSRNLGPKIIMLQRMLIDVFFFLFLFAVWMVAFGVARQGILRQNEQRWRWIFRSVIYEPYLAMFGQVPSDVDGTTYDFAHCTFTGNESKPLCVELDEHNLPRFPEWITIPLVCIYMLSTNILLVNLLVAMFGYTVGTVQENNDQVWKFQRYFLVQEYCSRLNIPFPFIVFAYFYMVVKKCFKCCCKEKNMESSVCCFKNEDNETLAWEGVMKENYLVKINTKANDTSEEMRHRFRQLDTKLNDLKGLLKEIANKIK
testDescription: hTRPM8 cell based agonist assay (section 3.1)
statedConditions: relative to WS3
readoutName: EC50 Ratio (WS3)

Guide cases for EC50 Ratio (WS3), answers given:
INSERT INTO assay_data (compound, measurement) VALUES
  ('CC(C)(C(=O)NCC(=O)c1cc(O)cc(O)c1)C1CCCCC1', 66.5),
  ('CC(C(=O)N(C)CC(=O)c1cccc(O)c1)C1CCCCC1 (stereo not drawn)', 581.6),
  ('CN(CC(=O)c1ccc(F)cc1)C(=O)C(C)(C)C1CCCCC1', 1.9),
  ('CC(C)(C(=O)NCC(=O)c1ccc(O)cc1)C1CCCCC1', 9.4),
  ('CC(C(=O)N(C)CC(=O)c1ccccc1)C1CCCCC1 (stereo not drawn)', 577.8),
  ('CC(C(=O)N(C)CC(=O)c1cccs1)C1CCCCC1 (stereo not drawn)', 62.5),
  ('CC(C(=O)NCC(=O)c1ccccc1)C1CC2CCC1C2 (stereo not drawn)', 1.0),
  ('CC(C)(C(=O)NCC(O)c1ccccc1)C1CCCCC1 (stereo not drawn)', 1.1);

I: CC(C(=O)N(C)CC(=O)c1ccccc1)c1ccccc1 (stereo not drawn)
II: C[C@H](C(=O)NNC(=O)c1ccccc1)C1CCCCC1
III: CC(C)(C(=O)NCC(=O)c1cccnc1)C1CCCCC1
IV: C[C@H](C(=O)N(C)CC(=O)c1ccsc1)C1CCCCC1
V: Cc1cccc(C(C)C(=O)N(C)CC(=O)c2ccccc2)c1 (stereo not drawn)
Ask: Arrange the 5 compounds from largest to smallest EC50 Ratio (WS3). State the ranking by listing the labels in the requested order.
Reply: IV, III, I, V, II
(IV: 132.4, III: 26.5, I: 3.9, V: 2.5, II: 1.0)

A: CC(C)(C(=O)NCC(=O)c1cccc(F)c1)C1CCCCC1
B: CC(C(=O)N(C)CC(=O)c1cc(O)cc(O)c1)C1CCCCC1 (stereo not drawn)
Ask: # return whichever of A and B has the smaller EC50 Ratio (WS3) Returns: label corresponding to the selected item.
Reply: A
